// provenance: PubChem BioAssay AID1159580

# experiment.notes: chemical genetic growth profiling, strain panel (AID 1159580);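 note: tested at 20 µM; growth read once vehicle control cultures reached saturation at 30 °C; 1 = growth at the plate median or of vehicle wells; lower values mean less growth of the strain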
# reported.conditions: S. cerevisiae deletion strains, growth OD, locus YMR058W, strain fet3, active compounds read low
The campaign covered roughly 5,500 compounds. About 2,000 (36%) were called active. Inconclusive results (about 18%) are left out. The list shows a part of the results.
measurement.type: normalized growth
I'd appreciate a reply containing only the number, no unit.

The reported value for CCCCC(=O)O[C@]1(C(=O)CO)CCC2C3CCC4=CC(=O)CC[C@]4(C)C3[C@@H](O)C[C@@]21C (stereo partly drawn) in terms of normalized growth is 0.974

So for `CC[C@@H]1OC(=O)C[C@@H](O)[C@H](C)[C@@H](O[C@@H]2O[C@H](C)[C@@H](O)[C@H](N(C)C)[C@H]2O)[C@@H](CCN2C[C@H](C)C[C@H](C)C2)C[C@@H](C)C(=O)/C=C/C(C)=C\[C@@H]1CO[C@@H]1O[C@H](C)[C@@H](O)[C@@H](OC)[C@H]1OC` , the logged normalized growth turned out to be 1

Lab note: CC1(C)N([O-])[N+](=O)C1(C)Br (stereo not drawn) gave normalized growth of 0.994
